Exercise: for every item that follows, state its recorded protein stability index.
B1: TRIM9 (parent)
chain: CVQCKMPVCYQCLEEGKHSSHEVK

- Variants of: B1
- assay explanation: protein stability index of a GFP-peptide fusion (GPS, HEK-293T) (PSI 1-6); higher = more stable;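 note: lentivirally expressed fusions sorted by FACS into six bins by GFP to DsRed ratio, PSI derived from sequencing read proportions per bin multiplied by bin number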
- condition notes: c terminus: a fixed tail appended
I only need the number, thanks.

Recorded protein stability index (variant C4H ): 3.62

Recorded protein stability index (variant P7S ): 3.65

Recorded protein stability index (variant H18L ): 3.55

Recorded protein stability index (variant Q3C ): 3.99

Recorded protein stability index (variant K5L ): 2.58

Recorded protein stability index (variant V2P ): 4.18

Recorded protein stability index (variant K24M ): 3.68

Recorded protein stability index (variant E15L ): 3.65

Recorded protein stability index (variant S19N ): 4.38

Recorded protein stability index (variant C1F ): 2.58

Recorded protein stability index (variant G16C ): 4.33

Recorded protein stability index (variant V23T ): 3.84

Recorded protein stability index (variant H21D ): 3.88

Recorded protein stability index (variant K24S ): 3.71

Recorded protein stability index (variant V23K ): 3.68

Recorded protein stability index (variant C1W ): 2.98

Recorded protein stability index (variant E14Y ): 3.15

Recorded protein stability index (variant S20Q ): 4.29

Recorded protein stability index (variant C9D ): 4.45

Recorded protein stability index (variant P7I ): 3.69

Recorded protein stability index (variant E14A ): 3.12

Recorded protein stability index (variant C1E ): 3.95

Recorded protein stability index (variant H21A ): 3.15

Recorded protein stability index (variant S19T ): 4.25

Recorded protein stability index (variant C12H ): 4.34

Recorded protein stability index (variant K24N ): 3.89

Recorded protein stability index (variant V8N ): 4.49

Recorded protein stability index (variant P7F ): 2.48

Recorded protein stability index (variant K5M ): 3.87

Recorded protein stability index (variant Q3S ): 4.12

Recorded protein stability index (variant E14M ): 3.17

Recorded protein stability index (variant K24C ): 4.97

Recorded protein stability index (variant K5E ): 4.22

Recorded protein stability index (variant K17Y ): 3.54

Recorded protein stability index (variant S20E ): 3.98

Recorded protein stability index (variant G16D ): 4.58

Recorded protein stability index (variant S20D ): 4.3

Recorded protein stability index (variant S19K ): 3.9

Recorded protein stability index (variant H18P ): 3.28

Recorded protein stability index (variant V8W ): 3.76

Recorded protein stability index (variant V23R ): 3.24

Recorded protein stability index (variant Y10F ): 4

Recorded protein stability index (variant K5A ): 3.4

Recorded protein stability index (variant K5R ): 4.15

Recorded protein stability index (variant K24Y ): 3.41

Recorded protein stability index (variant E14K ): 3.99
